Test system: RPMI-8226
measurement.protocol: NCI tumour cell line growth inhibition, 48 h
The source made the active and inactive calls. Cut-off read from the data, not from the text of the source: active = GI50 up to about 1.1 µM and inactive = higher.
Outcome codes: true = active, false = inactive

* CCOC(=O)/C1=C(\C)N(Cc2ccccc2)C(=O)c2ccccc2C(=O)c2c(O)ccc(O)c21 | false
* Oc1ccc2ccccc2c1/N=N\c1cccc2ccccc12 | false
* N#CC12CC3=C(N=C1NC1=C(CCc4ccccc41)C2)c1ccccc1CC3 (stereo unspecified) | true
* COCC1N=C(c2cc(OC)c(OC)c(OC)c2-c2cc3c(cc2C2OCCCO2)OCO3)O[C@H]1c1ccccc1 (stereo partly specified) | false
* C(/C=N/N=C1NCCN1)=N\N=C1NCCN1 | false
* O=C(c1ccccc1Br)C(F)(F)F | false
* O=c1[nH]c(=O)n(C2CC(O)C(CO)O2)cc1C(OCC(F)(F)F)OCC(F)(F)F (stereo unspecified) | false
* Cn1c(=O)nc2n(CCO)c(-c3ccccc3)c(-c3ccccc3)nc-2c1=O | false
* O=C(CCCCCNC(=O)c1ccc(Cl)cc1)NO | false
* CC(C)(C)OC(=O)NCCC1CNc2ccccc21 (stereo unspecified) | false
* CCCCCNC1=CC(=O)c2ccccc2C1=O | false

###

Test system: ACHN
measurement.protocol: NCI tumour cell line growth inhibition, 48 h
Calls of active or inactive are those of the source. Rule as the data show it: active = GI50 up to about 1.1 µM and inactive = higher.
measurement.kind: GI50

• CCOC(=O)C1CCCN1C(=O)c1ccccc1Cl (centres undefined) = > 100 µM (inactive)
• Nc1ncnc2c1ncn2-c1ccc([N+](=O)[O-])cn1 = > 100 µM (inactive)
• O=C1C(O)=C(C(C2=C(O)C(=O)c3ccccc3C2=O)c2ccc(Cl)cc2)C(=O)c2ccccc21 = 6.46 µM (inactive)
• N#CCc1n[nH]c2nc(SCc3ccccc3)nc(N3CCCCC3)c12 = 21.2 µM (inactive)
• NCCSCC(N)C(=O)O (centres undefined) = 65.9 µM (inactive)
• COC(=O)C(NC(=O)C12CCC(C)(C(=O)O1)C2(C)C)c1cc(C(C)(C)C)c(O)c(C(C)(C)C)c1 (centres undefined) = > 100 µM (inactive)
• Cc1ccc(C)c(NC(=O)C(=O)C(c2cnc3ccc([N+](=O)[O-])cc3n2)[N+](=O)[O-])c1 (centres undefined) = 26.6 µM (inactive)
• c1ccc(CSC2(SCc3ccccc3)CCCC2)cc1 = > 10 µM (inactive)
• CCOC(=O)c1sc2nc(SC)nc3c2c1NCN3c1ccc2c(c1)OCCCO2 = 32.1 µM (inactive)
• O=C(CCCCCNC(=O)c1ccc(Cl)cc1)NO = 5.19 µM (inactive)
• O=C(CSC(=S)N1CCOCC1)Nc1nc2c(s1)CCCC2 = > 100 µM (inactive)
• O=C1C=C(Nc2ccccc2C(=O)c2ccccc2)c2ccccc2C1=O = 45 µM (inactive)
• CC(C)=CCC/C(C)=C/COc1c2ccoc2cc2oc(=O)ccc12 = 22.8 µM (inactive)
• CCOC(=O)c1ccc(NC2Oc3cc4c(cc3C(c3cc(OC)c(OC)c(OC)c3)C2C)OCO4)cc1 (centres undefined) = 0.769 µM (active)
• O=C(/C=C/c1cccc(Br)c1)c1ccc(Cl)cc1 = 16.8 µM (inactive)
• C=CCn1c(=S)sc2c(C(=O)OCC)c3c(C)cc(C)cn3c2c1=O = > 100 µM (inactive)
• C(/C=N/N=C1NCCN1)=N\N=C1NCCN1 = > 100 µM (inactive)
• CCCCCC/C=C\CCCCCCCCCc1cccc(OC)c1O = > 100 µM (inactive)
• COc1ccccc1-c1cc(=O)c2ccccc2[nH]1 = > 100 µM (inactive)
• COc1ccc2c(=O)c(-c3cc(OC)c(OC)cc3OC)coc2c1 = > 82.8 µM (inactive)
• CCCCCCn1c(SCC)c2ccccc2c1-c1nc(F)nc(F)n1 = > 100 µM (inactive)
• NS(=O)(=O)c1ccc(NC(=S)N/C=C2\C(=O)Oc3ccccc3C2=O)cc1 = 18.3 µM (inactive)
• N#C/C(=C\N1CCNC1=S)C(=O)c1ccc2ccccc2c1 = > 100 µM (inactive)
• Oc1[nH]c(Nc2cc(Cl)cc(Cl)c2)nc2ncnc1-2 = > 75 µM (inactive)
• CC(=O)Nn1c(Cc2ccc(Cl)cc2)nn(C)c1=O = > 100 µM (inactive)
• CC1(C)CC(=O)C2=C(C1)OC1=C(CC(C)(C)CC1=O)C2c1ccccc1[N+](=O)[O-] (centres undefined) = > 100 µM (inactive)
• COc1ccc(N2C(=O)/C(=C/c3ccc(N(CCC#N)CCC#N)cc3C)N=C2c2cc([N+](=O)[O-])ccc2Cl)cc1 = 22.6 µM (inactive)
• O=c1cc(N2CCCC2)[nH]c(=O)n1-c1ccc(F)cc1 = > 100 µM (inactive)
• N#CC12CC3=C(N=C1NC1=C(CCc4ccccc41)C2)c1ccccc1CC3 (centres undefined) = 6.59 µM (inactive)
• COc1ccc(C(=O)NC2=C(Cl)C(=O)c3ccccc3C2=O)cc1 = 0.472 µM (active)
• O=C(NNC(=O)c1ccc(Cl)cc1NC(=O)C12CC3CC(CC(C3)C1)C2)c1ccc(Cl)cc1 = 23.6 µM (inactive)
• NC(CSS(=O)(=O)c1ccccc1)C(=O)O (centres undefined) = > 10 µM (inactive)
• CCN(CC)CCC1CCCCN1CC(=O)N1c2cc(Cl)ccc2NC(=O)CC1C (centres undefined) = > 100 µM (inactive)
• Cc1cc(CC(O)c2ccc(Cl)c(Cl)c2)nc(O)n1 (centres undefined) = 31.3 µM (inactive)
• Cc1oncc1/N=C1\C=C(O)C(=O)c2ccccc21 = 4.82 µM (inactive)
• O=C1c2ccccc2N2OC3(N4CCCC4)CCCCC3C12c1ccccc1 (centres undefined) = 18.5 µM (inactive)
• CNC(=O)N(CCC#N)CCN(C(=O)N(C)C)c1ccccc1 = > 100 µM (inactive)
• C[N+](C)(CCNc1ccc(NCC[N+](C)(C)Cc2ccc([N+](=O)[O-])cc2)c2c1C(=O)c1c(O)ccc(O)c1C2=O)Cc1ccc([N+](=O)[O-])cc1 = > 50 µM (inactive)
• Cc1nc2ccccc2n1C(=O)c1c(F)c(F)c(F)c(F)c1F = 22.9 µM (inactive)
• BC(=O)NC(CC(C)C)C(=O)NCC(=O)NC1c2ccsc2C(=O)C1O.CN(C)C (centres undefined) = > 100 µM (inactive)
• Oc1ccc2ccccc2c1/N=N\c1cccc2ccccc12 = > 100 µM (inactive)
• Cc1nn(C(=O)c2ccncc2)c2c1C(c1ccccc1[N+](=O)[O-])SC(=N)N2 (centres undefined) = > 10 µM (inactive)
• CC1=C2C3=C(C)C(=O)C(C)(C)CC[C@@]3(C)[C@]2(C)CCC(C)(C)C1=O = > 100 µM (inactive)
• C=C[C@@H](C)[C@]1(C(=O)OC)CCCC12OCCO2 = > 100 µM (inactive)

###

Test system: T47D
measurement.protocol: NCI tumour cell line growth inhibition, 48 h
Active and inactive are the calls of the source. No stated cut-off is given here; in the data, active = GI50 up to about 1.1 µM and inactive = higher.
Outcome codes: True (active), False (inactive)

* CN(N)/N=N/c1[nH]cnc1C(N)=O | False
* O=C(NC(=O)c1c(Cl)nc2sccn12)Nc1ccc(Cl)cc1 | False
* COc1ccc(N2C(=O)/C(=C/c3ccc(N(CCC#N)CCC#N)cc3C)N=C2c2cc([N+](=O)[O-])ccc2Cl)cc1 | False
* COc1cc2cc(C(=O)N3CC(CCl)c4c3cc(NC(=O)C(C)Nc3c([N+](=O)[O-])cc(C(=O)NCCN(C)C)cc3[N+](=O)[O-])c3ccccc43)[nH]c2c(OC)c1OC (centres undefined) | True
* COC1=CC(=O)c2c(cc(COP(N)(=O)N(CCCl)CCCl)n2C)C1=O (centres undefined) | True
* C(=N\c1ccc(-c2nc3ccccc3s2)cc1)/c1cccs1 | False
* CNC1c2ccccc2C(=O)c2cc3c(cc21)OCCOCCOCCOCCO3 (centres undefined) | False
* O=C(Nc1ccc(Cl)cc1)NS(=O)(=O)c1coc2ccccc2c1=O | False
* COc1cc2cc(C(=O)N3C[C@H](CCl)c4c3cc(O)c3ccccc43)[nH]c2c(OC)c1OC | False

###

System: SR
measurement.protocol: NCI tumour cell line growth inhibition, 48 h
Calls of active or inactive are those of the source. No stated cut-off is given here; in the data, active = GI50 up to about 1.1 µM and inactive = higher.
Outcome codes: TRUE (active), FALSE (inactive)

- O=c1[nH]c(=O)n(Cc2ccccc2CO)cc1Sc1ccccc1: FALSE
- Cc1ccc(NC(=O)C23CC4CC(CC(C4)C2)C3)c(C(=O)NNC(=O)c2ccc(Cl)cc2)c1: FALSE
- COc1cc2cc(C(=O)N3C[C@H](CCl)c4c3cc(O)c3ccccc43)[nH]c2c(OC)c1OC: TRUE
- O=C(N1CCOCC1)C1(c2ccccc2)CCNCC1: FALSE
- CNC(=O)N(CCC#N)CCN(C(=O)N(C)C)c1ccccc1: FALSE
- COC(OC)[C@@H](C)[C@H](O)[C@](C)(O)C1OC(C)(C)OC(C(C)C=C(C)C)C1C (stereo partly specified): FALSE
- CC(=O)Nn1c(Cc2ccc(Cl)cc2)nn(C)c1=O: FALSE
- COc1cc2noc(-c3ccccc3)c2cc1OC: FALSE
- COc1ccc(S(=O)(=O)N/N=C/CN2C(=O)c3ccccc3C2=O)cc1: FALSE
- COc1cc(/C=C/C(=O)OC[C@]23O[C@H]2[C@@H](OC2OC(C)C(O)C(O)C2O)C2C=CO[C@@H](OC4OC(CO)C(O)C(O)C4O)C23)ccc1O (stereo partly specified): FALSE
- O=P1(O)c2ccccc2CSCc2ccccc21: FALSE
